PROTOCOL_NOTES: Cell permeability, flux assay using Caco-2 cells
Format: in vitro ADME
SETTINGS: human; Caco-2, B to A, 2 hours
OBSERVATION_TYPE: Papp B→A at 2 h (×10⁻⁶ cm/s)

• CC(C)(C)[C@H](c1cc(-c2cc(F)ccc2F)cn1Cc1ccccc1)N(CCCN)C(=O)CSC[C@H](NC(=O)CCOCCOCCOCCOCCNC(=O)CNC(=O)[C@H](CC(=O)O)SC[C@H](N)C(=O)O)C(=O)O.O=C(O)C(F)(F)F.O=C(O)C(F)(F)F = 0.05
